experiment: Solubility study of P144; type: physicochemical; conditions: Human albumin 20%; read-out: Solubility
No end group written: not given here.
observed-property: Solubility (µg/mL)
Report only the number, with the unit µg/mL understood.

The recorded Solubility for TSLDASIIWAMMQN [Formula P144, TSLDASIIWAMMQN] is 250

----------
test: Solubility study of P144; assay type: physicochemical; settings: Hydroxy-propyl-β-cyclodextrin 5%; read-out: Solubility
No end group written: not given here.
observed-property: Solubility (µg/mL)
Express your answer in µg/mL, writing the number without its unit.

Entry under test: TSLDASIIWAMMQN [Formula P144, TSLDASIIWAMMQN] . Its Solubility was 250
